Just for reference, patent US10640533B2 is where these values come from.

Biological target: Constitutive 20S proteasome chymotrypsin-like (CT-L) activity (Homo sapiens (Human), UniProt P20618+P28074)
Assay: Constitutive 20S proteasome CT-L activity inhibition, fluorogenic substrate succinyl-Leu-Leu-Val-Tyr-AMC
Assay type: biochemical
Details: form of 20S proteasome not stated; 'below about'
reported.property: IC50

Worked examples, 3 molecules total:
COC[C@H](NC(=O)[C@H](CCc1ccccc1)NC(=O)Cc1ccc(CN2CCOCC2)cc1)C(=O)N[C@@H](Cc1ccccc1)C(=O)[C@@]1(C)CO1 ... < 5 nM
Cc1ncc(C(=O)N[C@@H](CCc2ccccc2)C(=O)N[C@@H](Cc2ccncc2)C(=O)N[C@@H](CC(C)C)C(=O)[C@@]2(C)CO2)s1 ... < 50 nM
CC(C)C[C@H](NC(=O)[C@H](CCc1ccccc1)NC(=O)CN1CCOCC1)C(=O)N[C@@H](Cc1ccccc1)C(=O)[C@@]1(C)CO1 ... < 5 nM

[ask] Any idea what its IC50 is? The molecule is `COC[C@H](NC(=O)[C@H](CCc1ccccc1)NC(=O)c1cnc(C)s1)C(=O)N[C@@H](Cc1ccccc1)C(=O)[C@@]1(C)CO1`
[reply] < 10 nM

[ask] Any idea what its IC50 is? The molecule is `CC(C)C[C@H](NC(=O)[C@H](Cc1ccncc1)NC(=O)[C@H](CCc1ccccc1)NC(=O)Cc1ccc(CN2CCOCC2)cc1)C(=O)[C@@]1(C)CO1`
[reply] < 5 nM

[ask] Any idea what its IC50 is? The molecule is `COC[C@H](NC(=O)[C@H](CCc1ccccc1)NC(=O)Cc1ccc(CN2CCOCC2)cc1)C(=O)N[C@@H](CC(C)C)C(=O)[C@@]1(C)CO1`
[reply] < 10 nM
